The compounds listed here are annotated with their melting point.

Solved entries (count: 2):
# COMPOUND, TEST VALUE
data = [
    ("CC(Cn1cnnn1)n1nnc2cc3c(=O)n(C(C)Cn4ncnn4)nnc3cc2c1=O (centres unmarked)", "204 to 206 °C"),
    ("CC[C@H](Cn1cnnn1)n1cnc2cc3c(=O)n([C@H](CC)Cn4cnnn4)nnc3cc2c1=O", "80 to 81 °C"),
]

Let us move to another entry and its melting point.
-- ask # get_value(readout='melting point', item= C#CCn1nnc2cc3c(=O)n(C(C)Cn4cnnn4)cnc3cc2c1=O (centres unmarked) )
-- reply 218 to 219 °C
